Test system: HeLa Kyoto;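 also: synchronized HeLa Kyoto cells, proteins quantified by TMT10plex mass spectrometry, three biological replicates, mitosis taken 0.5 h after nocodazole release, G1/S directly after double thymidine block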
Experiment: thermal stability score vs G1/S (z-score of summed log2 fold changes over temperatures); higher = more thermally stable than in G1/S
Settings: cell cycle stage: mitosis
ATTRIBUTE_MEASURED: thermal stability score

Requested field: thermal stability score. Item: MFIKGRAPRAPPRERRRATRGGLRQVVAPPRALGSTSRPHFRRASVCRRRCRKSGGLLAASRKMAAAAVNGAAGFSSSGPAATSGAVLQAATGMYEQLKGEWNRKSPNLSKCGEELGRLKLVLLELNFLPTTGTKLTKQQLILARDILEIGAQWSILRKDIPSFERYMAQLKCYYFDYKEQLPESAYMHQLLGLNLLFLLSQNRVAEFHTELERLPAKDIQTNVYIKHPVSLEQYLMEGSYNKVFLAKGNIPAESYTFFIDILLDTIRDEIAGCIEKAYEKILFTEATRILFFNTPKKMTDYAKKRGWVLGPNNYYSFASQQQKPEDTTIPSTELAKQVIEYARQLEMIV [PSMD8] -0.0502
